These entries and their values trace back to patent US20090053306A1.

# Procedure Summary: Solubility determination in selected excipients (HPLC)
# Type: physicochemical
# Assay Context: saline (about 0.9% NaCl solution), 25 °C, saline or isotonic, thermodynamic from solid, saline (about 0.9% NaCl solution); read-out: aqueous solubility
Measurement Label: solubility

What value of measured solubility is listed for COc1ccc(NC(=O)Nc2ccc(F)cc2F)cc1-c1c(Br)cnn1C ?
≤ 10 µg/mL

---

# Procedure Summary: Plasma pharmacokinetics in healthy male and female volunteers following oral administration of a capsule formulated dose
# Assay type: in vivo
# Assay Context: both sexes, human, single oral dose 20 mg, capsule with Cremephor RH40
Measurement Label: Tmax (h)
Give the value in h but do not write h after it.

What value of measured Tmax is listed for COc1ccc(NC(=O)Nc2ccc(F)cc2F)cc1-c1c(Br)cnn1C ?
1.2

---

# Procedure Summary: Plasma pharmacokinetics in healthy male and female volunteers following oral administration of a capsule formulated dose
# Format: in vivo
# Assay Context: both sexes, human, single oral dose 40 mg, capsule with Cremephor RH40
Measurement Label: AUC(0-inf) (ng·h/mL)
Give the value in ng·h/mL but do not write ng·h/mL after it.

What value of measured AUC(0-inf) is listed for COc1ccc(NC(=O)Nc2ccc(F)cc2F)cc1-c1c(Br)cnn1C ?
395

---

# Procedure Summary: Solubility determination in selected excipients (HPLC)
# Type: physicochemical
# Assay Context: 5% Gum Arabic, 25 °C, aqueous with cosolvent or surfactant or cyclodextrin, thermodynamic from solid, at 25° C. in 5% Gum Arabic; read-out: Solubility
Measurement Label: solubility

What value of measured solubility is listed for COc1ccc(NC(=O)Nc2ccc(F)cc2F)cc1-c1c(Br)cnn1C ?
< 10 µg/mL

---

# Procedure Summary: Solubility determination in selected excipients (HPLC)
# Format: physicochemical
# Assay Context: 1% Tween 80, 25 °C, aqueous with cosolvent or surfactant or cyclodextrin, thermodynamic from solid, at 25° C. in 1% Tween 80; read-out: Solubility
# Procedure: The vial contents were mixed for 30 seconds using a VWR mini vortexter followed by sonication (Branson 1510) for 1 minutes. Vials were placed into a constant temperature bath (i.e., about 25° C.) and allowed to equilibrate for no less than 12 hours. […] Each solution was analyzed by an HPLC method. […] Quantification was effected by comparison of the HPLC peak area for each test solution with the peak area taken from a standard plot of concentration versus peak area for standards of known concentration. […]
Measurement Label: solubility (mg/mL)
Give the value in mg/mL but do not write mg/mL after it.

What value of measured solubility is listed for COc1ccc(NC(=O)Nc2ccc(F)cc2F)cc1-c1c(Br)cnn1C ?
0.4

---

# Procedure Summary: Solubility determination in selected excipients (HPLC)
# Type: physicochemical
# Assay Context: phosphate buffer, 25 °C, pH 7, aqueous buffer, thermodynamic from solid, phosphate buffer (about pH 7); read-out: aqueous solubility
Measurement Label: solubility

What value of measured solubility is listed for COc1ccc(NC(=O)Nc2ccc(F)cc2F)cc1-c1c(Br)cnn1C ?
≤ 0.01 mg/mL

---

# Procedure Summary: Solubility determination in selected excipients (HPLC)
# Format: physicochemical
# Assay Context: deionized water, 25 °C, water, thermodynamic from solid, at 25° C. in Deionized water; read-out: Solubility
Measurement Label: solubility

What value of measured solubility is listed for COc1ccc(NC(=O)Nc2ccc(F)cc2F)cc1-c1c(Br)cnn1C ?
< 10 µg/mL

---

# Procedure Summary: Solubility determination in selected excipients (HPLC)
# Format: physicochemical
# Assay Context: PEG 600, 25 °C, organic solvent or mixture, thermodynamic from solid, at 25° C. in PEG 600; no suspension observed; read-out: Solubility
Measurement Label: solubility

What value of measured solubility is listed for COc1ccc(NC(=O)Nc2ccc(F)cc2F)cc1-c1c(Br)cnn1C ?
> 325 mg/mL

---

# Procedure Summary: Plasma pharmacokinetics in healthy male and female volunteers following oral administration of a capsule formulated dose
# Assay type: in vivo
# Assay Context: both sexes, human, single oral dose 20 mg, capsule with Cremephor RH40
Measurement Label: Cmax (ng/mL)
Give the value in ng/mL but do not write ng/mL after it.

What value of measured Cmax is listed for COc1ccc(NC(=O)Nc2ccc(F)cc2F)cc1-c1c(Br)cnn1C ?
58

---

# Procedure Summary: Plasma pharmacokinetics in healthy male and female volunteers following oral administration of a capsule formulated dose
# Assay type: in vivo
# Assay Context: both sexes, human, single oral dose 80 mg, capsule with Cremephor RH40
Measurement Label: Cmax
I'd appreciate it if you included the unit after the number.

What value of measured Cmax is listed for COc1ccc(NC(=O)Nc2ccc(F)cc2F)cc1-c1c(Br)cnn1C ?
118 ng/mL

---

# Procedure Summary: Plasma pharmacokinetics in healthy male and female volunteers following oral administration of a capsule formulated dose
# Assay type: in vivo
# Assay Context: both sexes, human, single oral dose 80 mg, capsule with Cremephor RH40
Measurement Label: Tmax (h)
Give the value in h but do not write h after it.

What value of measured Tmax is listed for COc1ccc(NC(=O)Nc2ccc(F)cc2F)cc1-c1c(Br)cnn1C ?
1.2

---

# Procedure Summary: Plasma pharmacokinetics in healthy male and female volunteers following oral administration of a capsule formulated dose
# Type: in vivo
# Assay Context: both sexes, human, single oral dose 160 mg, capsule with Cremephor RH40
Measurement Label: Tmax (h)
Give the value in h but do not write h after it.

What value of measured Tmax is listed for COc1ccc(NC(=O)Nc2ccc(F)cc2F)cc1-c1c(Br)cnn1C ?
1.5

---

# Procedure Summary: Solubility determination in selected excipients (HPLC)
# Type: physicochemical
# Assay Context: Tween 80, 25 °C, organic solvent or mixture, thermodynamic from solid, at 25° C. in Tween 80; read-out: Solubility
# Description: The vial contents were mixed for 30 seconds using a VWR mini vortexter followed by sonication (Branson 1510) for 1 minutes. Vials were placed into a constant temperature bath (i.e., about 25° C.) and allowed to equilibrate for no less than 12 hours. […] Each solution was analyzed by an HPLC method. […] Quantification was effected by comparison of the HPLC peak area for each test solution with the peak area taken from a standard plot of concentration versus peak area for standards of known concentration. […]
Measurement Label: solubility (mg/mL)
Give the value in mg/mL but do not write mg/mL after it.

What value of measured solubility is listed for COc1ccc(NC(=O)Nc2ccc(F)cc2F)cc1-c1c(Br)cnn1C ?
320

---

# Procedure Summary: Plasma pharmacokinetics in healthy male and female volunteers following oral administration of a capsule formulated dose
# Format: in vivo
# Assay Context: both sexes, human, single oral dose 80 mg, capsule with Cremephor RH40
Measurement Label: AUC(0-inf) (ng·h/mL)
Give the value in ng·h/mL but do not write ng·h/mL after it.

What value of measured AUC(0-inf) is listed for COc1ccc(NC(=O)Nc2ccc(F)cc2F)cc1-c1c(Br)cnn1C ?
612

---

# Procedure Summary: Solubility determination in selected excipients (HPLC)
# Assay type: physicochemical
# Assay Context: Labrafil M 1944 CS, 25 °C, oil or lipid, thermodynamic from solid, at 25° C. in Labrafil M 1944 CS; read-out: Solubility
Measurement Label: solubility (mg/mL)
Give the value in mg/mL but do not write mg/mL after it.

What value of measured solubility is listed for COc1ccc(NC(=O)Nc2ccc(F)cc2F)cc1-c1c(Br)cnn1C ?
29.9

---

# Procedure Summary: Solubility determination in selected excipients (HPLC)
# Assay type: physicochemical
# Assay Context: Tween 20, 25 °C, organic solvent or mixture, thermodynamic from solid, at 25° C. in Tween 20; no suspension observed; read-out: Solubility
Measurement Label: solubility

What value of measured solubility is listed for COc1ccc(NC(=O)Nc2ccc(F)cc2F)cc1-c1c(Br)cnn1C ?
> 160 mg/mL

---

# Procedure Summary: Solubility determination in selected excipients (HPLC)
# Assay type: physicochemical
# Assay Context: 0.05% Tween 80 & 0.5% Methocel, 25 °C, aqueous with cosolvent or surfactant or cyclodextrin, thermodynamic from solid, at 25° C. in 0.05% Tween 80 & 0.5% Methocel; read-out: Solubility
# Protocol: The vial contents were mixed for 30 seconds using a VWR mini vortexter followed by sonication (Branson 1510) for 1 minutes. Vials were placed into a constant temperature bath (i.e., about 25° C.) and allowed to equilibrate for no less than 12 hours. […] Each solution was analyzed by an HPLC method. […] Quantification was effected by comparison of the HPLC peak area for each test solution with the peak area taken from a standard plot of concentration versus peak area for standards of known concentration. […]
Measurement Label: solubility

What value of measured solubility is listed for COc1ccc(NC(=O)Nc2ccc(F)cc2F)cc1-c1c(Br)cnn1C ?
< 10 µg/mL

---

# Procedure Summary: Plasma pharmacokinetics in healthy male and female volunteers following oral administration of a capsule formulated dose
# Format: in vivo
# Assay Context: both sexes, human, single oral dose 10 mg, capsule with Cremephor RH40
# Description: Plasma pharmacokinetics for 1-[3-(4-bromo-2-methyl-2H-pyrazol-3-yl)-4-methoxy-phenyl]-3-(2,4-difluoro-phenyl)-urea were determined in healthy male and female volunteers following oral administration of a capsule formulated dose of 1-[3-(4-bromo-2-methyl-2H-pyrazol-3-yl)-4-methoxy-phenyl]-3-(2,4-difluoro-phenyl)-urea and Cremephor RH40.
Measurement Label: Tmax (h)
Give the value in h but do not write h after it.

What value of measured Tmax is listed for COc1ccc(NC(=O)Nc2ccc(F)cc2F)cc1-c1c(Br)cnn1C ?
1.2
